Parameter remaining at 65 min, 1 µM: see the listing below.
Assay: Stability in cynomolgus monkey liver microsomes assessed as parent compound remaining at 1 uM measured after 65 mins by LC/MS-MS analysis
Format: ADME, Macaca fascicularis, Microsome
Settings: read-out: Stability
Number in %, nothing else.

Examples with answers:
SMILES TEXT: Cc1ncncc1-c1nc2cc(F)c(F)cc2n1C1CC1
UNITS: %
remaining at 65 min, 1 µM: 72

SMILES TEXT: N#Cc1ccc2nc(-c3cncnc3C(F)(F)F)n(C3CC3)c2n1
UNITS: %
remaining at 65 min, 1 µM: 87

Problem: Would you mind telling me what remaining at 65 min, 1 µM value was observed for Fc1cc2nc(-c3cncnc3C(F)(F)F)n(C3CC3)c2cc1F ?
Solution: 99
